- MEASURED_TARGET: UniProtKB P43220
- Sequence (P43220 24-463): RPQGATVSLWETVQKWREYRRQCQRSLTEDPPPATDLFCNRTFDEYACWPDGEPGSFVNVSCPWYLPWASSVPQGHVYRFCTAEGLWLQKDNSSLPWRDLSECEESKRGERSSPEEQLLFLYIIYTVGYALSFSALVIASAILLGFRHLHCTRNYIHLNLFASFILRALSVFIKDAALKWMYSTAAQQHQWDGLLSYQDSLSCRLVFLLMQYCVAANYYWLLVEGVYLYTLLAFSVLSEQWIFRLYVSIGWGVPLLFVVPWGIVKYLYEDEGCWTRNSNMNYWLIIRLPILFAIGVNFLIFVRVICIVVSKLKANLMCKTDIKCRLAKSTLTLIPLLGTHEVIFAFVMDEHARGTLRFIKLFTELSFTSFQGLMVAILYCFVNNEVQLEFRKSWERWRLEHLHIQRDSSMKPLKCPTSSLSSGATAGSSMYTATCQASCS
- METHOD_NOTES: cAMP responsive luciferase reporter assay, HEK293/CRE-Luc/hGLP1R cells
- Format: cell-based
- CONDITIONS_USED: highest RLU / RLU of untreated wells
Where a SMILES comes first, the peptide text is derived from it. [ ]: non-standard residue; d: D form. The star is where a group is joined. Bip(2'-Et,4'-O(CH2)4NH2) = CCc1cc(OCCCCN)ccc1-c1ccc(C[C@H](N)C(=O)O)cc1; Malonyl(2,2-Me2,histaminyl) = CC(C)(C(=O)NCCc1cnc[nH]1)C(=O)*; Nva(5-(3,5-Me2Ph)) = Cc1cc(C)cc(CCC[C@H](N)C(=O)O)c1; Ala(1H-tetrazol-5-yl) = N[C@@H](Cc1nnn[nH]1)C(=O)O; X5 = C[C@]1(C(=O)*)CCN(CCc2cnc[nH]2)C1=O; αMePhe(2-F) = C[C@](N)(Cc1ccccc1F)C(=O)O; Desaminohistidyl = O=C(CCc1c[nH]cn1)*; X3 = CC(C)(C(=O)*)c1ccn[nH]1; X1 = O=C(CCCCCc1cnc[nH]1)*; X2 = CC(C)(C(N)=O)C(=O)*; X4 = CC(C)(C(=O)O)C(=O)*
Provide the reported HEK293/CRE-LUC/hGLP1R S/N of each item.

State, for UniProtKB P43220, measured HEK293/CRE-LUC/hGLP1R S/N of the molecule listed here: CCc1cc(OCCCCN)ccc1-c1ccc(C[C@H](NC(=O)[C@H](CC(=O)O)NC(=O)[C@H](CO)NC(=O)[C@@H](NC(=O)[C@](C)(Cc2ccccc2F)NC(=O)[C@@H](NC(=O)CNC(=O)[C@H](Cc2nn[nH]n2)NC(=O)C(C)(C)C(=O)NCCc2cnc[nH]2)[C@@H](C)O)[C@@H](C)O)C(=O)N[C@@H](CCCc2cc(C)cc(C)c2)C(N)=O)cc1 [P9] ({Malonyl(2,2-Me2,histaminyl)}-[Ala(1H-tetrazol-5-yl)]GT[αMePhe(2-F)]TSD[Bip(2'-Et,4'-O(CH2)4NH2)][Nva(5-(3,5-Me2Ph))]-NH2) 75.2

State, for UniProtKB P43220, measured HEK293/CRE-LUC/hGLP1R S/N of the molecule listed here: CCc1cc(OCCCCN)ccc1-c1ccc(C[C@H](NC(=O)[C@H](CC(=O)O)NC(=O)[C@H](CO)NC(=O)[C@@H](NC(=O)[C@](C)(Cc2ccccc2F)NC(=O)[C@@H](NC(=O)CNC(=O)[C@H](Cc2nn[nH]n2)NC(=O)C(C)(C)c2ccn[nH]2)[C@@H](C)O)[C@@H](C)O)C(=O)N[C@@H](CCCc2cc(C)cc(C)c2)C(N)=O)cc1 [P6] (X3-[Ala(1H-tetrazol-5-yl)]GT[αMePhe(2-F)]TSD[Bip(2'-Et,4'-O(CH2)4NH2)][Nva(5-(3,5-Me2Ph))]-NH2) 60.7

State, for UniProtKB P43220, measured HEK293/CRE-LUC/hGLP1R S/N of the molecule listed here: CCc1cc(OCCCCN)ccc1-c1ccc(C[C@H](NC(=O)[C@H](CC(=O)O)NC(=O)[C@H](CO)NC(=O)[C@@H](NC(=O)[C@](C)(Cc2ccccc2F)NC(=O)[C@@H](NC(=O)CNC(=O)[C@H](Cc2nn[nH]n2)NC(=O)[C@H](C)NC(=O)[C@@H](N)Cc2cnc[nH]2)[C@@H](C)O)[C@@H](C)O)C(=O)N[C@@H](CCCc2cc(C)cc(C)c2)C(N)=O)cc1 [P10] (H-HA[Ala(1H-tetrazol-5-yl)]GT[αMePhe(2-F)]TSD[Bip(2'-Et,4'-O(CH2)4NH2)][Nva(5-(3,5-Me2Ph))]-NH2) 45.1

State, for UniProtKB P43220, measured HEK293/CRE-LUC/hGLP1R S/N of the molecule listed here: CCc1cc(OCCCCN)ccc1-c1ccc(C[C@H](NC(=O)[C@H](CC(=O)O)NC(=O)[C@H](CO)NC(=O)[C@@H](NC(=O)[C@](C)(Cc2ccccc2F)NC(=O)[C@@H](NC(=O)CNC(=O)[C@H](Cc2nn[nH]n2)NC(=O)CCCCCc2cnc[nH]2)[C@@H](C)O)[C@@H](C)O)C(=O)N[C@@H](CCCc2cc(C)cc(C)c2)C(N)=O)cc1 [P11] (X1-[Ala(1H-tetrazol-5-yl)]GT[αMePhe(2-F)]TSD[Bip(2'-Et,4'-O(CH2)4NH2)][Nva(5-(3,5-Me2Ph))]-NH2) 54.8

State, for UniProtKB P43220, measured HEK293/CRE-LUC/hGLP1R S/N of the molecule listed here: CCc1cc(OCCCCN)ccc1-c1ccc(C[C@H](NC(=O)[C@H](CC(=O)O)NC(=O)[C@H](CO)NC(=O)[C@@H](NC(=O)[C@](C)(Cc2ccccc2F)NC(=O)[C@@H](NC(=O)CNC(=O)[C@H](Cc2nn[nH]n2)NC(=O)C(C)(C)C(=O)O)[C@@H](C)O)[C@@H](C)O)C(=O)N[C@@H](CCCc2cc(C)cc(C)c2)C(N)=O)cc1 [P3] (X4-[Ala(1H-tetrazol-5-yl)]GT[αMePhe(2-F)]TSD[Bip(2'-Et,4'-O(CH2)4NH2)][Nva(5-(3,5-Me2Ph))]-NH2) 46.3

State, for UniProtKB P43220, measured HEK293/CRE-LUC/hGLP1R S/N of the molecule listed here: CCc1cc(OCCCCN)ccc1-c1ccc(C[C@H](NC(=O)[C@H](CC(=O)O)NC(=O)[C@H](CO)NC(=O)[C@@H](NC(=O)[C@](C)(Cc2ccccc2F)NC(=O)[C@@H](NC(=O)CNC(=O)[C@H](CCC(N)=O)NC(=O)C(C)(C)C(=O)NCCc2cnc[nH]2)[C@@H](C)O)[C@@H](C)O)C(=O)N[C@@H](CCCc2cc(C)cc(C)c2)C(N)=O)cc1 58.8

State, for UniProtKB P43220, measured HEK293/CRE-LUC/hGLP1R S/N of the molecule listed here: CCc1cc(OCCCCN)ccc1-c1ccc(C[C@H](NC(=O)[C@H](CC(=O)O)NC(=O)[C@H](CO)NC(=O)[C@@H](NC(=O)[C@](C)(Cc2ccccc2F)NC(=O)[C@@H](NC(=O)CNC(=O)[C@H](Cc2nn[nH]n2)NC(=O)[C@@]2(C)CCN(CCc3cnc[nH]3)C2=O)[C@@H](C)O)[C@@H](C)O)C(=O)N[C@@H](CCCc2cc(C)cc(C)c2)C(N)=O)cc1 [P15-R] (X5-[Ala(1H-tetrazol-5-yl)]GT[αMePhe(2-F)]TSD[Bip(2'-Et,4'-O(CH2)4NH2)][Nva(5-(3,5-Me2Ph))]-NH2) 67.8

State, for UniProtKB P43220, measured HEK293/CRE-LUC/hGLP1R S/N of the molecule listed here: CCc1cc(OCCCCN)ccc1-c1ccc(C[C@H](NC(=O)[C@H](CC(=O)O)NC(=O)[C@H](CO)NC(=O)[C@@H](NC(=O)[C@](C)(Cc2ccccc2F)NC(=O)[C@@H](NC(=O)CNC(=O)[C@H](Cc2nn[nH]n2)NC(=O)CNC(=O)CCc2c[nH]cn2)[C@@H](C)O)[C@@H](C)O)C(=O)N[C@@H](CCCc2cc(C)cc(C)c2)C(N)=O)cc1 [P12] (Desaminohistidyl-G[Ala(1H-tetrazol-5-yl)]GT[αMePhe(2-F)]TSD[Bip(2'-Et,4'-O(CH2)4NH2)][Nva(5-(3,5-Me2Ph))]-NH2) 76.4

State, for UniProtKB P43220, measured HEK293/CRE-LUC/hGLP1R S/N of the molecule listed here: CCc1cc(OCCCCN)ccc1-c1ccc(C[C@H](NC(=O)[C@H](CC(=O)O)NC(=O)[C@H](CO)NC(=O)[C@@H](NC(=O)[C@](C)(Cc2ccccc2F)NC(=O)[C@@H](NC(=O)CNC(=O)[C@H](Cc2nn[nH]n2)NC(=O)C(C)(C)C(N)=O)[C@@H](C)O)[C@@H](C)O)C(=O)N[C@@H](CCCc2cc(C)cc(C)c2)C(N)=O)cc1 [P4] (X2-[Ala(1H-tetrazol-5-yl)]GT[αMePhe(2-F)]TSD[Bip(2'-Et,4'-O(CH2)4NH2)][Nva(5-(3,5-Me2Ph))]-NH2) 66.9
